Where these numbers come from: ChEMBL document CHEMBL1124401

Below: a set of entries, each annotated with reported pKi.
# Tested on: Human immunodeficiency virus
# experiment.description: The inhibition of compound was determined by reverse transcriptase assay using RNA as template
# Format: functional
Scale: pKi equals -log10([C]), with [C] in mol/L.

[[record]]
molecule = "Cc1cn([C@H]2CC[C@@H](COP(=O)(O)OP(=O)(O)OP(=O)(O)O)O2)c(=O)[nH]c1=O"
value = 7.30

[[record]]
molecule = "Cc1cn([C@H]2C[C@H](N=[N+]=[N-])[C@@H](COP(=O)(O)OP(=O)(O)OP(=O)(O)O)O2)c(=O)[nH]c1=O [ZIDOVUDINE TRIPHOSPHATE]"
value = 8.15


Let us examine a further case.
What pKi value was documented for this molecule, Cc1cn([C@H]2C=C[C@@H](COP(=O)(O)OP(=O)(O)OP(=O)(O)O)O2)c(=O)[nH]c1=O [STAVUDINE TRIPHOSPHATE] ?
7.49
